Target: GST tagged truncated human mutant G2019S LRRK2 (Homo sapiens (Human), UniProt Q5S007, G2019S)
Sequence (Q5S007 970-2527 G2019S): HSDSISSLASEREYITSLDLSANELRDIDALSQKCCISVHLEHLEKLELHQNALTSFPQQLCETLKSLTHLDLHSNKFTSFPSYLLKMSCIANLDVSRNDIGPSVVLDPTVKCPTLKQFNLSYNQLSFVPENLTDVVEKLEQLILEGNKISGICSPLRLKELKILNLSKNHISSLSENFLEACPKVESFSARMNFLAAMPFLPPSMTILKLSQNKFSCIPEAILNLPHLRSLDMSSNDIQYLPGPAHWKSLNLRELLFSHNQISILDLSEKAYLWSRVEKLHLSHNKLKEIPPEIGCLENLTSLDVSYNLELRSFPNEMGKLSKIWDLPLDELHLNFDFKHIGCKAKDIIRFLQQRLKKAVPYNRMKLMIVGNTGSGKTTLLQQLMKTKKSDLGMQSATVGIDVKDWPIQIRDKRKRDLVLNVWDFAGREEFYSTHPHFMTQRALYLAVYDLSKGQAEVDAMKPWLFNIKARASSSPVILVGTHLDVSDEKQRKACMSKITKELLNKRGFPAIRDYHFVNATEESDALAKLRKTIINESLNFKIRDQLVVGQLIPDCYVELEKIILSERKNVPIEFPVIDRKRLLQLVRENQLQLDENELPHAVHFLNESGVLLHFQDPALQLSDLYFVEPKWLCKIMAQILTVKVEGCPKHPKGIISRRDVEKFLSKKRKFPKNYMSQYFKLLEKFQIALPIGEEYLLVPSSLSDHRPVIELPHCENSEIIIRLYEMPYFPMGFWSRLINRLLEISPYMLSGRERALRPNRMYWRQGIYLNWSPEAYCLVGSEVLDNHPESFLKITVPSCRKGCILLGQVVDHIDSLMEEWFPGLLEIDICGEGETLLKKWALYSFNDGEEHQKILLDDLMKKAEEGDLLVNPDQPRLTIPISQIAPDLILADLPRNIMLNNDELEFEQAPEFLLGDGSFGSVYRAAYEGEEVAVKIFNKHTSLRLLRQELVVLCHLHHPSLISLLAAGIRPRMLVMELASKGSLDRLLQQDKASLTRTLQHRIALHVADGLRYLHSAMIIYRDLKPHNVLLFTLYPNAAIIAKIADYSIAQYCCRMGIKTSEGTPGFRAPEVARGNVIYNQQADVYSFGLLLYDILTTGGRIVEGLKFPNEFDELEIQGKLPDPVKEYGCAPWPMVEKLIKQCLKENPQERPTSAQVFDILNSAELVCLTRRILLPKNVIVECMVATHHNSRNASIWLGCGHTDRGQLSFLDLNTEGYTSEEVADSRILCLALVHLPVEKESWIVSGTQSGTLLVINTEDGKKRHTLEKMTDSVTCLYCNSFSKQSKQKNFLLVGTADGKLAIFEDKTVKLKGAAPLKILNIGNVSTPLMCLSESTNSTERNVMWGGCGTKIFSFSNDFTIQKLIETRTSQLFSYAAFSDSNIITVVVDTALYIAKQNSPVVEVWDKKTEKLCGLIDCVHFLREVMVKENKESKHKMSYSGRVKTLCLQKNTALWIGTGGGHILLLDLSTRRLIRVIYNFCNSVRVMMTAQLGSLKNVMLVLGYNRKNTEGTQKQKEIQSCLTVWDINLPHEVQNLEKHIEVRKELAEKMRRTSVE
Test: LRRK2 Km ATP LanthaScreen Assay
Type: biochemical
Details: G2019S LRRK2, 134 μM ATP (Km ATP), mean values
endpoint: LRRK2 pIC50
Lab note: record just the number, no unit beside it.

Past entries and their recorded results:
Cc1c(Nc2ncc3cc(Cl)c(C4CCN(C[C@@H](O)c5cccc(F)c5)CC4)cc3n2)cnn1C1CC1 [Ex-4.196]; 8.87
OC1CCCC1N1CC[C@H](c2cc3nc(Nc4cnn(C5CC5)c4Cl)ncc3cc2Cl)[C@@H](F)C1 (single isomer, unassigned) [Ex-4.158]; 8.99

Please look at this molecule and report its LRRK2 pIC50: Cc1c(Nc2ncc3cc(Cl)c(C4CCN(CC5(O)CCOCC5)CC4)cc3n2)cnn1C1CC1 [Ex-4.210]
8.55

###

Target: GST tagged truncated human mutant G2019S LRRK2 (Homo sapiens (Human), UniProt Q5S007, G2019S)
Assay: LRRK2 Km ATP LanthaScreen Assay
Assay type: biochemical
Settings: G2019S LRRK2, 134 μM ATP (Km ATP), mean values
endpoint: LRRK2 pIC50
Lab note: record just the number, no unit beside it.

CC1(N2CCC(c3cc4nc(Nc5cnn(C6CC6)c5Cl)ncc4cc3Cl)CC2)COC1 [Ex-8.10]; 9.08
Cc1cc2cnc(Nc3cnn(C)c3C)nc2cc1[C@@H]1CCN([C@H]2COC[C@H]2O)C[C@H]1F (single isomer, unassigned) [Ex-4.258]; 7.39
CCN1CCC(c2cc3nc(Nc4cnn(CC(C)(C)O)c4Cl)ncc3cc2Cl)CC1 [Ex-4.97]; 8.57
Cn1ncc(Nc2ncc3cc(Cl)c([C@@H]4CCN([C@H]5COC[C@H]5O)C[C@H]4F)cc3n2)c1Cl (single isomer, unassigned) [Ex-4.185]; 9.17
N#CC1CCC(N2CC[C@@H](c3cc4nc(Nc5cnn(C6CC6)c5Cl)ncc4cc3Cl)[C@H](F)C2)C1 (single isomer, unassigned) [Ex-4.108]; 8.49
Cc1cc2cnc(Nc3cc(C(F)(F)F)nn3C)nc2cc1C1CCN([C@]2(C)COC[C@@H]2O)CC1 (single isomer, unassigned) [Ex-5.15]; 8.42

Please look at this molecule and report its LRRK2 pIC50: Cc1c(Nc2ncc3cc(Cl)c(C4CCN(C5CCC(CC#N)C5)CC4)cc3n2)cnn1C1CC1 (single isomer, unassigned) [Ex-4.168]
8.88

Please look at this molecule and report its LRRK2 pIC50: Cc1cc(Nc2ncc3cc(C)c([C@@H]4CCN([C@@H]5COC[C@@H]5O)C[C@H]4F)cc3n2)n(C)n1 (single isomer, unassigned) [Ex-5.9]
8.49

###

Below, each entry is listed alongside its reported LRRK2 pIC50.
Biological target: GST tagged truncated human mutant G2019S LRRK2 (Homo sapiens (Human), UniProt Q5S007, G2019S)
Assay: LRRK2 Km ATP LanthaScreen Assay
Type: biochemical
Details: G2019S LRRK2, 134 μM ATP (Km ATP), mean values

Cc1cc2cnc(Nc3cnn(C4CC4(F)F)c3C)nc2cc1[C@@H]1CCN([C@@H]2COC[C@@H]2O)C[C@H]1F (single isomer, unassigned) [Ex-4.146]; >9.20
O[C@@H]1COC[C@@H]1N1CCC(c2cc3nc(Nc4cnn(C56CC(C5)C6)c4)ncc3cc2Cl)CC1 (single isomer, unassigned); >9.20
Cc1cc2cnc(Nc3cnn(C4CC4)c3Cl)nc2cc1[C@H]1CCN(C2COC2)C[C@@H]1F (single isomer, unassigned); 8.76
Cc1cc2cnc(Nc3cnn(C4CC4)c3C)nc2cc1C1CCN([C@@]2(C)COC[C@H]2O)CC1 (single isomer, unassigned); >9.20

Please look at this compound and report its LRRK2 pIC50: Cc1cc2cnc(Nc3cnn(C45CC(C4)C5)c3C)nc2cc1C1CCN(C2(C)COC2)CC1
>9.20

Please look at this compound and report its LRRK2 pIC50: Cc1c(Nc2ncc3cc(Cl)c(C4CCN(C[C@@H](O)c5c(F)cccc5F)CC4)cc3n2)cnn1C1CC1
8.16
